# Experimental protocol: log P by HPLC (OECD Guideline 117), method [a] acidic range
# Type: physicochemical
# Measurement conditions: HPLC, method [a] acidic range
Value type: logP[a]
Give bare numbers.

Solved cases (6 shown):
[
  {
    "Compound": "Cc1cc(F)c(-n2nc(OCC(C)C)n(C)c2=O)cc1[S+]([O-])CC(F)(F)F (centres unmarked) [Example 152]",
    "logP[a]": 2.90
  },
  {
    "Compound": "Cc1cc(F)c(-n2nc(C(F)(F)F)n(CC(F)(F)F)c2=O)cc1SCC(F)(F)F [Example 55]",
    "logP[a]": 4.22
  },
  {
    "Compound": "CCn1c(S(C)(=O)=O)nn(-c2cc([S+]([O-])CC(F)(F)F)c(C)cc2F)c1=O (centres unmarked) [Example 422]",
    "logP[a]": 2.12
  },
  {
    "Compound": "Cc1cc(F)c(-n2nc(SC(F)(F)F)n(C3CC3)c2=O)cc1[S+]([O-])CC(F)(F)F (centres unmarked) [Example 264]",
    "logP[a]": 3.05
  },
  {
    "Compound": "CCn1c(C(F)(F)F)nn(-c2ccc(C)c(SCC(F)(F)F)c2)c1=O [Example 54]",
    "logP[a]": 4.38
  },
  {
    "Compound": "CCC[S+]([O-])c1nn(-c2cc(SCC(F)(F)F)c(C)cc2F)c(=O)n1C1CC1 (centres unmarked) [Example 236]",
    "logP[a]": 3.05
  }
]

Each compound below has a recorded value; state its logP[a].
1. C=CCSc1nn(-c2cc(SCC(F)(F)F)c(C)cc2F)c(=O)n1C1CC1 [Example 425]
2. COC1=CC(=O)N(c2cc([S+]([O-])CC(F)(F)F)c(C)cc2C)C1 (racemic) [Example 313]

[4.10, 1.83]

Each compound below has a recorded value; state its logP[a].
1. CCOc1nn(-c2ccc(C)c(SCC(F)(F)F)c2)c(=O)n1C [Example 130]
2. CC1=C(C)C(=O)N(c2cc([S+]([O-])CC(F)(F)F)c(C)cc2F)C1=O (centres unmarked) [Example 341]
3. Cc1cc(Cl)c(-n2nc(OCC(C)(C)C)n(C3CC3)c2=O)cc1[S+]([O-])CC(F)(F)F (centres unmarked) [Example 404]
4. Cc1cc(F)c(-n2nc(C)n(N)c2=O)cc1SCC(F)(F)F [Example 200]

1: 3.77; 2: 2.52; 3: 3.79; 4: 2.18

Each compound below has a recorded value; state its logP[a].
1. COC1=CC(=O)N(c2ccc(Cl)c([S+]([O-])CC(F)(F)F)c2)C1 (racemic) [Example 315]
2. COc1nn(-c2cc([S+]([O-])CC(F)(F)F)c(F)cc2F)c(=O)n1C (centres unmarked) [Example 169]
3. Cc1cc(F)c(-n2nc(OC3CCCCC3)n(C)c2=O)cc1SCC(F)(F)F [Example 153]
4. COc1nn(-c2cc(SCC(F)(F)F)c(C)cc2F)c(=O)n1CC(F)(F)F [Example 393]
5. Cc1cc(F)c(-n2nc(N(C)C)n(C)c2=O)cc1[S+]([O-])CC(F)(F)F (racemic) [Example 191]

2.24
1.81
4.50
3.50
1.86
